# Assay: Antioxidant activity assessed as inhibition of hypoxanthine/xanthine oxidase-mediated ROS generation incubated for 5 min prior to xanthine oxidase addition measured every 4 secs for 100 secs by luminol-enhanced chemiluminescence analysis
# Type: functional
Observed property: IC50 (µM)
One number for each entry, in µM.

// solved cases for IC50 follow
• COc1cc2c(ccc3c(CCN(C)C)c(Br)c(O)c(OC)c32)cc1O = 0.19
• COc1cc2ccc3c(CC[N+](C)(C)C)c(Br)c(OC)c(OC)c3c2cc1OC.[I-] = 3.01

I have 4 compounds here; please give me IC50 for each one.
1. COc1cc2c(ccc3c(CC[N+](C)(C)C)c(Br)c(O)c(OC)c32)cc1O.[I-]
2. COc1cc2c(cc1O)C[C@H]1c3c(c(Br)c(O)c(OC)c3-2)CC[N+]1(C)C.[I-] [3-BROMO-N-METHYLBOLDINE IODIDE]
3. COc1cc2c(cc1O)C[C@H]1c3c(c(Br)c(O)c(OC)c3-2)CCN1C
4. CNCCc1c(Br)c(O)c(OC)c2c1ccc1cc(O)c(OC)cc12

1: 2.11; 2: 2; 3: 0.55; 4: 0.16

====

# Target or system: Xanthine dehydrogenase/oxidase (Homo sapiens)
# Sequence (P47989 whole entry): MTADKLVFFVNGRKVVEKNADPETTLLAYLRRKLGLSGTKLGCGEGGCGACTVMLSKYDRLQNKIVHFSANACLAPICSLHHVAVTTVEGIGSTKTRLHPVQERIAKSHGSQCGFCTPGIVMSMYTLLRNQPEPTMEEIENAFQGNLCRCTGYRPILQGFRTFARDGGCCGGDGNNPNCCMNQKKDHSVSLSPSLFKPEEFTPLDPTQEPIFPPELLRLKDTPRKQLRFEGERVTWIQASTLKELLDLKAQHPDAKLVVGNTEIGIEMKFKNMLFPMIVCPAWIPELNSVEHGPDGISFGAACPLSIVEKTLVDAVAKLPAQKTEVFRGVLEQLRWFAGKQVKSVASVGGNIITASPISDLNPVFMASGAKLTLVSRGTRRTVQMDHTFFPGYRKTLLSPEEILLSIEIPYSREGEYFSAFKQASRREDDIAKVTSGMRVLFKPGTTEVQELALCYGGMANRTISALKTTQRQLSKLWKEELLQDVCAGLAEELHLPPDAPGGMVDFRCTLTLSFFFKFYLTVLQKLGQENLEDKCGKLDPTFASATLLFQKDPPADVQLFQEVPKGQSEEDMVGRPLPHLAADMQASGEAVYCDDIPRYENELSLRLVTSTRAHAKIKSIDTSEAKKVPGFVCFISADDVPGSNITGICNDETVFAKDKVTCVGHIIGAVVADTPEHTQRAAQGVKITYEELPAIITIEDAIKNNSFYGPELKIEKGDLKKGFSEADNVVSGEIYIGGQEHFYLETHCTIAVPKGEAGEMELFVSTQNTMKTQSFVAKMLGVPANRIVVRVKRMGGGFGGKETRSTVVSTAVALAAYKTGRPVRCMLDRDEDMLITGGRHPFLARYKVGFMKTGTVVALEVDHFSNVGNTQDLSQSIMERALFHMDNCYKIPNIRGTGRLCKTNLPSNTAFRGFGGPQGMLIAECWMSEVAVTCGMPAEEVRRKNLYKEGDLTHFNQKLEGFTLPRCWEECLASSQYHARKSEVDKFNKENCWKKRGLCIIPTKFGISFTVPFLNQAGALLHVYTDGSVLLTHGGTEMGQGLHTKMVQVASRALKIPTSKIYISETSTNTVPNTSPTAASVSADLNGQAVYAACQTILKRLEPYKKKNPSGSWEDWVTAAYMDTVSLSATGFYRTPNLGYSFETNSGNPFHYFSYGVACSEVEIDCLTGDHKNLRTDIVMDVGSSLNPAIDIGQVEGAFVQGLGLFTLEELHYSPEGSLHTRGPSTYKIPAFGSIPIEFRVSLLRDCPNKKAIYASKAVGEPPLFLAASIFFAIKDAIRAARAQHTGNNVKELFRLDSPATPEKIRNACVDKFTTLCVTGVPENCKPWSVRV
# Assay: Inhibition of xanthine oxidase (unknown origin) using pterine as substrate assessed as rate of isoxantopterine formation by fluorimetric analysis (reference value: 3.25 +/- 0.25 umol/min)
Exercise: state measured Activity for each of the molecules provided.
Give bare numbers, in µmol/min.

- COc1cc2c(cc1O)C[C@H]1c3c(c(Br)c(O)c(OC)c3-2)CC[N+]1(C)C.[I-] [3-BROMO-N-METHYLBOLDINE IODIDE]: 3.77
- CNCCc1c(Br)c(O)c(OC)c2c1ccc1cc(O)c(OC)cc12: 2.82

I have 4 molecules here; please give me Activity for each one.
1. COc1cc2c(cc1O)C[C@H]1c3c(c(Br)c(O)c(OC)c3-2)CCN1C
2. COc1cc2c(ccc3c(CC[N+](C)(C)C)c(Br)c(O)c(OC)c32)cc1O.[I-]
3. COc1cc2ccc3c(CC[N+](C)(C)C)c(Br)c(OC)c(OC)c3c2cc1OC.[I-]
4. COc1cc2c(ccc3c(CCN(C)C)c(Br)c(O)c(OC)c32)cc1O

[4.09, 3.6, 3.45, 3.98]
